- Tested on: ACHN
- PROCEDURE DETAILS: NCI tumour cell line growth inhibition, 48 h
Activity calls are given as the source filed them. No stated cut-off is given here; in the data, active = GI50 up to about 1.1 µM and inactive = higher.

{"MOLECULE": "O=C(NCCNCCCNC(=O)c1cc(-c2ccccc2)nc2ccccc12)c1cccc(OCc2ccccc2)c1OCc1ccccc1", "GI50": "1.73 µM (inactive)"}
{"MOLECULE": "CC(=O)O[C@H]1CC[C@@]2(C)C(=CC[C@@H]3C2CC[C@]2(C)C(=O)NC(=O)CC32)C1 (some centres undefined)", "GI50": "> 100 µM (inactive)"}
{"MOLECULE": "CC(C)(C)C1=NO[C@H]2[C@@H](NC(=O)c3ccccc3)CC[C@@H]12", "GI50": "> 100 µM (inactive)"}
{"MOLECULE": "Cc1cc(NC2=NCCO2)c2c(c1C)CCCC2", "GI50": "10.1 µM (inactive)"}
{"MOLECULE": "NS(=O)(=O)c1ccc(NC(NC(=O)C(C(F)(F)F)C(F)(F)F)(C(F)(F)F)C(F)(F)F)cc1", "GI50": "> 100 µM (inactive)"}
{"MOLECULE": "COc1ccc2c(c1)C(=O)C1(C2)[C@H](c2ccccc2)C2C(=O)c3cc(OC)ccc3C2[C@H]1c1ccccc1 (some centres undefined)", "GI50": "> 100 µM (inactive)"}
{"MOLECULE": "CCCC1CC(=O)NC(=O)C1C(=O)OC(C)(C)C (centres undefined)", "GI50": "> 100 µM (inactive)"}
{"MOLECULE": "O=C(NCCNCCNC(=O)c1cc(-c2ccccc2)nc2ccccc12)c1cc(-c2ccccc2)nc2ccccc12", "GI50": "2.14 µM (inactive)"}
{"MOLECULE": "C/C=C1/C[C@@H](C)[C@@](C)(O)C(=O)OCC2=CC[N+]3([O-])CC[C@@H](OC1=O)[C@@H]23 (some centres undefined) [SENECIONINE N-OXIDE]", "GI50": "> 100 µM (inactive)"}
{"MOLECULE": "N=C(N)NS(=O)(=O)c1ccc(Nc2c3ccccc3nc3c(C(=O)NCCO)cccc23)cc1", "GI50": "0.219 µM (active)"}
{"MOLECULE": "O=c1c2cc(I)ccc2nc(-c2cccs2)n1Nc1ccccc1", "GI50": "0.675 µM (active)"}
{"MOLECULE": "Cc1ccccc1C1OC1C(=O)c1ccccc1N (centres undefined)", "GI50": "> 100 µM (inactive)"}
{"MOLECULE": "Sc1nn2c(Cc3ccccc3)nnc2s1", "GI50": "> 100 µM (inactive)"}
{"MOLECULE": "Cc1c2c(n(CCc3ccccc3)c1C)N(C)N=C(C#N)S2(=O)=O", "GI50": "> 100 µM (inactive)"}
{"MOLECULE": "C=C(C)CCOC(c1ccccc1)(c1ccccc1)c1ccccc1", "GI50": "25.7 µM (inactive)"}
{"MOLECULE": "CCCCCCCCCCCCC(O)C1CCC(C(O)CCCCC(O)CCCCCC2CC(CC(C)=O)C(=O)O2)O1 (centres undefined)", "GI50": "7.85 µM (inactive)"}
{"MOLECULE": "CC(=O)NC(CCCOC(C)=O)C(=O)NC(CCCOC(C)=O)C(=O)NC(CCCOC(C)=O)C(=O)NC(Cc1ccc([N+](=O)[O-])cc1)C(=O)NCC(=O)OCc1ccccc1 (centres undefined)", "GI50": "> 100 µM (inactive)"}
{"MOLECULE": "N#CC1Nc2ccccc2[C@@H](O)C1O (some centres undefined)", "GI50": "> 100 µM (inactive)"}
{"MOLECULE": "O=C(O)c1ccc(S(=O)(=O)c2ccccc2[N+](=O)[O-])cc1", "GI50": "> 10 µM (inactive)"}

* * *

- Test system: M19-MEL
- PROCEDURE DETAILS: NCI tumour cell line growth inhibition, 48 h
Active and inactive are the calls of the source. Rule as the data show it: active = GI50 up to about 1.1 µM and inactive = higher.
Items are presented alongside their recorded GI50.
MEASURED PARAMETER: GI50

{"MOLECULE": "CCCCSCC(NC(=O)/C=C/c1c(C)[nH]c(=O)[nH]c1=O)C(=O)OC (configuration not stated)", "VALUE REPORTED": "38.4 µM (inactive)"}
{"MOLECULE": "CC(=O)OC(C)(C)C[N+](=O)[O-]", "VALUE REPORTED": "> 100 µM (inactive)"}
{"MOLECULE": "CCN(CC)CCCCC1CCN(CC(=O)N2c3ccccc3NC(=O)c3ccccc32)CC1", "VALUE REPORTED": "> 100 µM (inactive)"}
{"MOLECULE": "Cc1ccc(C)c(NC(=O)CC/C(=N\\NC(=O)C(N)=O)C(C)C(=O)c2ccc(O)cc2)c1 (configuration not stated)", "VALUE REPORTED": "> 100 µM (inactive)"}
{"MOLECULE": "CCCCc1ccc(-n2c3nc(=O)n(C)c(=O)c-3nc3ccccc32)cc1", "VALUE REPORTED": "1.5 µM (inactive)"}
{"MOLECULE": "C=CCNC1=NC(=O)C(CC(=O)Nc2cccc(Cl)c2)S1 (configuration not stated)", "VALUE REPORTED": "> 100 µM (inactive)"}
{"MOLECULE": "CCOC(=O)c1cnc2[nH]c(=O)c3ccccc3n2c1=O", "VALUE REPORTED": "> 100 µM (inactive)"}
{"MOLECULE": "C1COCCN1.S=C(S)N1CCOCC1", "VALUE REPORTED": "1.25 µM (inactive)"}
{"MOLECULE": "NC(=O)OCC1=C(COC(N)=O)C(=O)c2c(O)ccc(O)c2C1=O", "VALUE REPORTED": "3.46 µM (inactive)"}
{"MOLECULE": "COc1ccc(-c2[nH]c3ccccc3c2CCNS(=O)(=O)c2ccc(C)cc2)cc1", "VALUE REPORTED": "> 8.39 µM (inactive)"}
{"MOLECULE": "Cc1ccccc1NC(=O)CC(=O)N1N=C(N2c3ccccc3Sc3ccccc32)CC1c1ccccc1 (configuration not stated)", "VALUE REPORTED": "> 100 µM (inactive)"}
{"MOLECULE": "CN(CCO)c1nc(=O)c2c([nH]1)CCC2", "VALUE REPORTED": "> 100 µM (inactive)"}

* * *

- Test system: A498
- PROCEDURE DETAILS: NCI tumour cell line growth inhibition, 48 h
Activity calls are given as the source filed them. Rule as the data show it: active = GI50 up to about 1.1 µM and inactive = higher.

{"COMPOUND": "Clc1cc2n[se]nc2cc1Cl", "GI50": "> 100 µM (inactive)"}
{"COMPOUND": "N=S(c1ccccc1[N+](=O)[O-])c1ccccc1[N+](=O)[O-]", "GI50": "16.6 µM (inactive)"}
{"COMPOUND": "COc1ccc(C(c2cc(OC)c(OC)c(OC)c2)N2C(=O)CCC2C(=O)O)cc1 (stereo unspecified)", "GI50": "77.1 µM (inactive)"}
{"COMPOUND": "Cc1ccc(S(=O)(=O)NC(=O)Nc2nc(Cl)cc(Cl)n2)cc1", "GI50": "> 100 µM (inactive)"}
{"COMPOUND": "CC12CC(c3ccccc3O1)C(C(=O)Nc1nccs1)C(=O)N2 (stereo unspecified)", "GI50": "> 100 µM (inactive)"}
{"COMPOUND": "Cc1ccc(N/C(SCc2ccccc2)=C(\\C(Cl)=C(Cl)Cl)[N+](=O)[O-])c(C)c1", "GI50": "22.2 µM (inactive)"}
{"COMPOUND": "CCC(C(C)N1CC(=O)NC(=O)C1)N1CC(=O)NC(=O)C1 (stereo unspecified)", "GI50": "> 100 µM (inactive)"}
{"COMPOUND": "Cc1cc(-n2c(/C=C/c3ccc(Cl)cc3)nc3cc(Cl)ccc3c2=O)on1", "GI50": "2.31 µM (inactive)"}
{"COMPOUND": "COc1ccc(/N=[N+](\\[O-])c2ccc(OC)cc2)cc1", "GI50": "> 100 µM (inactive)"}
{"COMPOUND": "CC(=O)O[C@H]1CC[C@@]2(C)C(=CC[C@@H]3C2CC[C@]2(C)C(=O)NC(=O)CC32)C1 (stereo partly specified)", "GI50": "> 100 µM (inactive)"}
{"COMPOUND": "O=C1c2ccccc2N2OC3(N4CCCC4)CCCC3C12c1ccccc1 (stereo unspecified)", "GI50": "> 100 µM (inactive)"}

Values were extracted from ChEMBL document CHEMBL1201862.
